- target.or.test.system: acetylcholinesterase enzyme from electric eel (Electrophorus electricus, UniProt O42275)
- Construct: purchased Sigma-Aldrich CAS Number 9000-81-1 (catalogue number not given)
- Sequence (O42275 24-633): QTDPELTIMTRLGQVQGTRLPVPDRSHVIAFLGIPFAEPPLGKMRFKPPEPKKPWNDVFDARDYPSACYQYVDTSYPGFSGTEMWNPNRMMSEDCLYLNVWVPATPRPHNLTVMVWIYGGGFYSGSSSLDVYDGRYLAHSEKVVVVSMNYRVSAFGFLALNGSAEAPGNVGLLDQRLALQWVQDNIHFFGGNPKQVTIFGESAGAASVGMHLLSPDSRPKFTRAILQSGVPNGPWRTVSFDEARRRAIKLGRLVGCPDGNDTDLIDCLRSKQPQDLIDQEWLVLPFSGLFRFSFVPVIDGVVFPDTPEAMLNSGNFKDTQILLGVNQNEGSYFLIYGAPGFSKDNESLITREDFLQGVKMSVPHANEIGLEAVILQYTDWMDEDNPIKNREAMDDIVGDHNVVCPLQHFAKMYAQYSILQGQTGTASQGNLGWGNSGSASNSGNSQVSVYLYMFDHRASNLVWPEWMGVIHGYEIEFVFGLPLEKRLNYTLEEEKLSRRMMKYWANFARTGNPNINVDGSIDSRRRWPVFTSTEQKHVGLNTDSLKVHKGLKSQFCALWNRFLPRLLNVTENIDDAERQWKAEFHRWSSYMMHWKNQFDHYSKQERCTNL
- test.name: Acetylcholinesterase (AChE) inhibitory assay (DTNB/acetylthiocholine iodide, absorbance at 412 nm)
- Format: biochemical
- measurement.parameters: read-out: IC50 value against AChE
measurement.kind: pIC50
pIC50 here: minus log base 10 of the concentration, concentration in moles per litre.

Known pIC50 results, listed for orientation:
molecule	target.or.test.system	pIC50
O=C(c1ccc(Cl)cc1)C1C(c2cc3ccccc3s2)C2CSCN2[C@@]12C(=O)Nc1ccc(Cl)cc12 (stereo partly shown) [IId]	acetylcholinesterase enzyme from electric eel (Electrophorus electricus, UniProt O42275)	4.42
O=C(c1ccc(Br)cc1)C1C(c2cc3ccccc3s2)C2C3CCCCC3CN2[C@@]12C(=O)Nc1ccc(Cl)cc12 (stereo partly shown) [IIn]	acetylcholinesterase enzyme from electric eel (Electrophorus electricus, UniProt O42275)	4.43

Now consider a different molecule.
So what's the measured pIC50 for this one? O=C(c1ccc(F)cc1)C1C(c2cc3ccccc3s2)C2CSCN2[C@@]12C(=O)Nc1ccc(Cl)cc12 (stereo partly shown) [IIg]
4.64

---

- target.or.test.system: acetylcholinesterase enzyme from electric eel (Electrophorus electricus)
- Construct: purchased Sigma-Aldrich CAS Number 9000-81-1 (catalogue number not given)
- test.name: Acetylcholinesterase (AChE) inhibitory assay (DTNB/acetylthiocholine iodide, absorbance at 412 nm)
- Format: biochemical
- measurement.parameters: Conc 6.25 ug/ml
Class Fulfilled: inhibition at 6.25 µg/mL at least 20%. Class Not fulfilled: inhibition at 6.25 µg/mL below 20%.

Check out these entries, answers already filled in.
molecule	assigned.class
O=C(c1ccc(C(F)(F)F)cc1)C1C(c2cc3ccccc3s2)C2CSCN2[C@@]12C(=O)Nc1ccccc12 (stereo partly drawn)	Not fulfilled
O=C(c1ccc(Br)cc1)C1C(c2cc3ccccc3s2)C2C3CCCCC3CN2[C@@]12C(=O)Nc1ccc(Cl)cc12 (stereo partly drawn)	Fulfilled
O=C(c1ccccc1)C1C(c2cc3ccccc3s2)C2CSCN2[C@@]12C(=O)Nc1ccccc12 (stereo partly drawn)	Not fulfilled

Could you verify whether the entry O=C(c1ccc(F)cc1)C1C(c2cc3ccccc3s2)C2C3CCCCC3CN2[C@@]12C(=O)Nc1ccc(Cl)cc12 (stereo partly drawn) shows inhibition at 6.25 µg/mL of no less than 20%?
Not fulfilled

Decide: is the reported value of inhibition at 6.25 µg/mL for O=C(c1ccc(Cl)cc1)C1C(c2cc3ccccc3s2)C2CSCN2[C@@]12C(=O)Nc1ccc(Cl)cc12 (stereo partly drawn) equal to or greater than 20%?
Fulfilled

State whether the measured inhibition at 6.25 µg/mL reaches 20%, counting equality as reaching it, for O=C(c1ccc(C(F)(F)F)cc1)C1C(c2cc3ccccc3s2)C2CSCN2[C@@]12C(=O)Nc1ccc(Cl)cc12 (stereo partly drawn)
Not fulfilled

State whether the measured inhibition at 6.25 µg/mL reaches 20%, counting equality as reaching it, for O=C(c1ccc(C(F)(F)F)cc1)C1C(c2cc3ccccc3s2)C2C3CCCCC3CN2[C@@]12C(=O)Nc1ccc(Cl)cc12 (stereo partly drawn)
Fulfilled

Kindly determine if inhibition at 6.25 µg/mL recorded for O=C(c1ccc(Cl)cc1)C1C(c2cc3ccccc3s2)C2CSCN2[C@@]12C(=O)Nc1ccccc12 (stereo partly drawn) is above or exactly 20%.
Fulfilled

Quick check: does O=C(c1ccccc1)C1C(c2cc3ccccc3s2)C2CSCN2[C@@]12C(=O)Nc1ccc(Cl)cc12 (stereo partly drawn) have inhibition at 6.25 µg/mL greater than or equal to 20%?
Not fulfilled
